# TARGET_OR_SYSTEM: Cytoplasmic tyrosine-protein kinase BMX (Homo sapiens);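 further: reported value is the mean percent inhibition of BMX, from the GSK PKIS kinase inhibitor screen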
# Sequence (whole entry): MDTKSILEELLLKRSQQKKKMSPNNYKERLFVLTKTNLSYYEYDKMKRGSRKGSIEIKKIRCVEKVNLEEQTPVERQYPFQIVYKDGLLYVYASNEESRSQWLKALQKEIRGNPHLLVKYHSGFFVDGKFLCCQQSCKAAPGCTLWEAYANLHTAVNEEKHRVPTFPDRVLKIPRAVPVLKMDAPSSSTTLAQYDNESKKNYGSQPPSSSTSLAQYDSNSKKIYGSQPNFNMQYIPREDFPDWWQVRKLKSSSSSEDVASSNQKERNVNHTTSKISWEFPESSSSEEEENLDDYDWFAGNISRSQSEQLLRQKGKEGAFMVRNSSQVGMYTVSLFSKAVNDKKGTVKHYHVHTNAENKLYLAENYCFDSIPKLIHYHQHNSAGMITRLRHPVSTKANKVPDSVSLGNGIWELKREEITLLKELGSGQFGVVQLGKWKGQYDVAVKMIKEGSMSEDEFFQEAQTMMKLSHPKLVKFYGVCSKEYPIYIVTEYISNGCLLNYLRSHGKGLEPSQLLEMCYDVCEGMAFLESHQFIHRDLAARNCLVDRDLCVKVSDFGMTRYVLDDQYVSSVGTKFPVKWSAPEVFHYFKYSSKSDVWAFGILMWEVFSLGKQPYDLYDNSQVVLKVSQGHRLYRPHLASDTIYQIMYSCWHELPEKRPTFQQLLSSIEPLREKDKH
# ASSAY_SETUP: at 1 µM
ASSAY_ENDPOINT: inhibition (%)
Write the number in % without appending the unit.

Form: compound = COC(=O)c1ccc2c(c1)C(=Cc1cc(Br)c(O)c(Br)c1)C(=O)N2 ; inhibition = 7.64

Form: compound = Cc1cc(Cl)cc2c1NC(=O)C2=NNc1ccc(S(N)(=O)=O)cc1 ; inhibition = 2.55

Form: compound = OCc1ccc(-c2nc(-c3ccccn3)c(-c3ccc4c(c3)OCO4)[nH]2)cc1 ; inhibition = 4.67

Form: compound = CC(C)c1ccc(Nc2nccc(-c3cnn4ncccc34)n2)cc1 ; inhibition = 5.9

Form: compound = COc1cccc(-n2nc(C)c3c(N/N=C(\C)c4ccncc4)ncnc32)c1 ; inhibition = 3.74

Form: compound = Nc1nccc(C#Cc2cncnc2Nc2ccc(OCc3cccc(F)c3)c(Cl)c2)n1 ; inhibition = 8.65

Form: compound = COc1cc2ncn(-c3cc(OCc4ccccc4S(C)(=O)=O)c(C#N)s3)c2cc1OC ; inhibition = 33.1

Form: compound = CS(=O)(=O)CCNCc1nc(-c2ccc3ncnc(Nc4ccc(OCc5cccc(C(F)(F)F)c5)cc4)c3c2)cs1 ; inhibition = 5.73

Form: compound = NC(=O)c1sc(-n2cnc3ccccc32)cc1OCc1ccccc1Br ; inhibition = 4.96

Form: compound = COc1cccc(-n2ncc3c(N/N=C/c4ccc(S(C)(=O)=O)cc4)ncnc32)c1 ; inhibition = 30.7

Form: compound = CN(C)C(=O)O[C@@H]1CN[C@@H](C#Cc2cc3ncnc(Nc4ccc(OCc5cccc(F)c5)c(Cl)c4)c3s2)C1 ; inhibition = 3.41

Form: compound = Cc1ccc2c(c1)/C(=N/Nc1ccc(S(N)(=O)=O)cc1)C(=O)N2 ; inhibition = -0.8

Form: compound = COc1cccc(-n2ncc3c(N/N=C/c4ccc(C)cc4)ncnc32)c1 ; inhibition = 10.6

Form: compound = Cc1cc(O)cc(C)c1/C=C/c1cncc(C(=O)N(C)C)c1 ; inhibition = 5.69

Form: compound = CN(C)c1cc2c(Nc3ccc4c(cnn4Cc4ccccc4)c3)ncnc2cn1 ; inhibition = 20.8

Form: compound = FC(F)(F)c1ccc(-c2nn3ncccc3c2-c2ccnc(Nc3ccc4c(c3)OCCO4)n2)cc1 ; inhibition = 0.4

Form: compound = Oc1cccc(-c2nc(-c3ccccc3)[nH]c2-c2ccncc2)c1 ; inhibition = 8.97

Form: compound = Cc1ccc2c(-c3ccnc(Nc4cccc(C(F)(F)F)c4)n3)c(-c3ccccc3)nn2n1 ; inhibition = 38.2

Form: compound = NS(=O)(=O)c1cccc(Nc2cc(-c3ccc(F)cc3)n[nH]2)c1 ; inhibition = 4.82

Form: compound = ON=C1CCc2cc(-c3nc(C4CCNCC4)[nH]c3-c3ccncc3)ccc21 ; inhibition = -1.75

Form: compound = CN1CCN(C(=O)c2ccc(NC(=O)Nc3ccc(N(C)c4ccnc(Nc5ccc(CS(C)(=O)=O)cc5)n4)cc3)cc2)CC1 ; inhibition = 68

Form: compound = CCS(=O)(=O)c1ccc(OC)c(Nc2nccc(N(C)c3ccc4c(C)n[nH]c4c3)n2)c1 ; inhibition = 23.2

Form: compound = CN(C)C(=O)O[C@H]1CN[C@H](C#Cc2cc3ncnc(Nc4ccc(OCc5cccc(F)c5)c(Cl)c4)c3s2)C1 ; inhibition = 3.3

Form: compound = Cc1ccc(C(=O)NC2CC2)cc1-c1ccc2[nH]ncc2c1 ; inhibition = -6.39

Form: compound = NS(=O)(=O)c1ccc(-c2cc3ccncc3cc2OCc2ccccc2)cc1 ; inhibition = 4.75

Form: compound = CCS(=O)(=O)c1ccc(OC)c(Nc2ncc(-c3cccc(OC)c3)o2)c1 ; inhibition = 25.9

Form: compound = COc1cc2ncnc(Nc3ccc(C)c(O)c3)c2cc1OC ; inhibition = 13

Form: compound = Nc1nccc(-c2c(-c3ccc(F)cc3)nn3cc(C(F)(F)F)ccc23)n1 ; inhibition = 0.94

Form: compound = CCOc1nccc2c1nc(-c1nonc1N)n2CC ; inhibition = 1.81

Form: compound = Nc1nccc(-c2c(-c3ccc(F)cc3)ncn2CCCN2CCOCC2)n1 ; inhibition = 2.77

Form: compound = COC(=O)Nc1nc2cc(Oc3ccc(NC(=O)Nc4cccc(Br)c4)cc3)ccc2[nH]1 ; inhibition = 1.32

Form: compound = O=C1Nc2ccccc2/C1=C/Nc1ccc2[nH]c(=O)[nH]c2c1 ; inhibition = 7.7

Form: compound = Nc1ccc(C#Cc2cncnc2Nc2ccc(OCc3cccc(F)c3)c(Cl)c2)cc1 ; inhibition = 2.63

Form: compound = C[C@@H](Oc1cc(-n2cnc3ccc(OC[C@@H](O)CO)cc32)sc1C(N)=O)c1ccccc1Cl ; inhibition = 0.31
